Test system: KM12
Experiment: Growth inhibition of human KM12 cells assessed as cell growth at 10^-6 M by sulforhodamine B assay
Format: functional
Details: read-out: Activity
reported.metric: growth at 1 µM

The following molecules have reported results that may help.
C/C=C(/C)C(=O)O[C@@H]1CC(C)(C)C[C@H]2C3=CC[C@@H]4[C@@]5(C)CCC(=O)C(C)(C)[C@@H]5CC[C@@]4(C)[C@]3(C)CC[C@@]12C(=O)O [LANTADENE A]    84%
CC(C)=CC(=O)O[C@@H]1CC(C)(C)C[C@H]2C3=CC[C@@H]4[C@@]5(C)CCC(=O)C(C)(C)[C@@H]5CC[C@@]4(C)[C@]3(C)CC[C@@]12C(=O)O    48%
CC1(C)C[C@@H](O)[C@]2(C(=O)O)CC[C@]3(C)C(=CC[C@@H]4[C@@]5(C)C/C(=C\C=C\c6ccccc6)C(=O)C(C)(C)[C@@H]5CC[C@]43C)[C@@H]2C1    92%
CC(C)=CC(=O)O[C@@H]1CC(C)(C)C[C@H]2C3=CC[C@@H]4[C@@]5(C)CC[C@H](O)C(C)(C)[C@@H]5CC[C@@]4(C)[C@]3(C)CC[C@@]12C(=O)O [Reduced Lantadene B]    48%

We now examine a further molecule.
Ask | Record C/C=C(/C)C(=O)O[C@@H]1CC(C)(C)C[C@H]2C3=CC[C@@H]4[C@@]5(C)CC[C@H](O)C(C)(C)[C@@H]5CC[C@@]4(C)[C@]3(C)CC[C@@]12C(=O)O [Reduced Lantadene A] : what is its growth at 1 µM with KM12?
Reply | 69%

====

# reported TGI; entries follow
System: SNB-19
Test: Growth inhibition of human SNB19 cells by sulforhodamine B assay
Assay type: functional
Settings: read-out: pTGI (converted)
Enter your answer as a number in µM; do not include the unit.

CC1(C)C[C@@H](O)[C@]2(C(=O)O)CC[C@]3(C)C(=CC[C@@H]4[C@@]5(C)C/C(=C\C=C\c6ccccc6)C(=O)C(C)(C)[C@@H]5CC[C@]43C)[C@@H]2C1    16.6
CC(C)=CC(=O)O[C@@H]1CC(C)(C)C[C@H]2C3=CC[C@@H]4[C@@]5(C)CC[C@H](O)C(C)(C)[C@@H]5CC[C@@]4(C)[C@]3(C)CC[C@@]12C(=O)O    22.4

Ask | For the compound `C/C=C(/C)C(=O)O[C@@H]1CC(C)(C)C[C@H]2C3=CC[C@@H]4[C@@]5(C)CC[C@H](O)C(C)(C)[C@@H]5CC[C@@]4(C)[C@]3(C)CC[C@@]12C(=O)O` , what TGI is on record?
Reply | 3.39

====

# reported inhibition of growth at 10 µM; entries follow
Test system: TK-10
Experiment: Growth inhibition of human TK10 cells assessed as growth inhibition at 10 uM by sulforhodamine B assay
Type: functional
Details: read-out: GI
Enter your answer as a number in %; do not include the unit.

The following compounds have reported results that may help.
C/C=C(/C)C(=O)O[C@@H]1CC(C)(C)C[C@H]2C3=CC[C@@H]4[C@@]5(C)CC[C@H](O)C(C)(C)[C@@H]5CC[C@@]4(C)[C@]3(C)CC[C@@]12C(=O)O [Reduced Lantadene A]    33.2
CC(C)=CC(=O)O[C@@H]1CC(C)(C)C[C@H]2C3=CC[C@@H]4[C@@]5(C)CCC(=O)C(C)(C)[C@@H]5CC[C@@]4(C)[C@]3(C)CC[C@@]12C(=O)O    21.9
CC(C)=CC(=O)O[C@@H]1CC(C)(C)C[C@H]2C3=CC[C@@H]4[C@@]5(C)CC[C@H](O)C(C)(C)[C@@H]5CC[C@@]4(C)[C@]3(C)CC[C@@]12C(=O)O [Reduced Lantadene B]    20.1

Ask | For the compound C/C=C(/C)C(=O)O[C@@H]1CC(C)(C)C[C@H]2C3=CC[C@@H]4[C@@]5(C)CCC(=O)C(C)(C)[C@@H]5CC[C@@]4(C)[C@]3(C)CC[C@@]12C(=O)O [LANTADENE A] , what inhibition of growth at 10 µM is on record?
Reply | 16.7

Ask | For the compound `CC1(C)C[C@@H](O)[C@]2(C(=O)O)CC[C@]3(C)C(=CC[C@@H]4[C@@]5(C)C/C(=C\C=C\c6ccccc6)C(=O)C(C)(C)[C@@H]5CC[C@]43C)[C@@H]2C1` , what inhibition of growth at 10 µM is on record?
Reply | 11.7

====

# reported GI50; entries follow
Test system: MCF7
Test: Growth inhibition of human MCF7 cells by sulforhodamine B assay
Type: functional
Details: read-out: GI50
Answer with the value and then the unit.

The following compounds have reported results that may help.
CC(C)=CC(=O)O[C@@H]1CC(C)(C)C[C@H]2C3=CC[C@@H]4[C@@]5(C)CCC(=O)C(C)(C)[C@@H]5CC[C@@]4(C)[C@]3(C)CC[C@@]12C(=O)O    3.29 µM
CC(C)=CC(=O)O[C@@H]1CC(C)(C)C[C@H]2C3=CC[C@@H]4[C@@]5(C)CC[C@H](O)C(C)(C)[C@@H]5CC[C@@]4(C)[C@]3(C)CC[C@@]12C(=O)O    6.18 µM
C/C=C(/C)C(=O)O[C@@H]1CC(C)(C)C[C@H]2C3=CC[C@@H]4[C@@]5(C)CC[C@H](O)C(C)(C)[C@@H]5CC[C@@]4(C)[C@]3(C)CC[C@@]12C(=O)O    3.09 µM
C/C=C(/C)C(=O)O[C@@H]1CC(C)(C)C[C@H]2C3=CC[C@@H]4[C@@]5(C)CCC(=O)C(C)(C)[C@@H]5CC[C@@]4(C)[C@]3(C)CC[C@@]12C(=O)O    3.6 µM

We now examine a further compound.
Ask | For the compound `CC1(C)C[C@@H](O)[C@]2(C(=O)O)CC[C@]3(C)C(=CC[C@@H]4[C@@]5(C)C/C(=C\C=C\c6ccccc6)C(=O)C(C)(C)[C@@H]5CC[C@]43C)[C@@H]2C1` , what GI50 is on record?
Reply | 3.23 µM

====

# reported inhibition of growth at 10 µM; entries follow
Tested on: SF-295
Assay: Growth inhibition of human SF295 cells assessed as growth inhibition at 10 uM by sulforhodamine B assay
Assay type: functional
Conditions: read-out: GI
Enter your answer as a number in %; do not include the unit.

The following compounds have reported results that may help.
CC1(C)C[C@@H](O)[C@]2(C(=O)O)CC[C@]3(C)C(=CC[C@@H]4[C@@]5(C)C/C(=C\C=C\c6ccccc6)C(=O)C(C)(C)[C@@H]5CC[C@]43C)[C@@H]2C1    76.5
CC1(C)C[C@@H](O)[C@]2(C(=O)O)CC[C@]3(C)C(=CC[C@@H]4[C@@]5(C)CCC(=O)C(C)(C)[C@@H]5CC[C@]43C)[C@@H]2C1    19.3
C/C=C(/C)C(=O)O[C@@H]1CC(C)(C)C[C@H]2C3=CC[C@@H]4[C@@]5(C)CCC(=O)C(C)(C)[C@@H]5CC[C@@]4(C)[C@]3(C)CC[C@@]12C(=O)O    72.3

Ask | For the compound `COc1cc(/C=C2\C[C@]3(C)[C@H]4CC=C5[C@@H]6CC(C)(C)C[C@@H](O)[C@]6(C(=O)O)CC[C@@]5(C)[C@]4(C)CC[C@H]3C(C)(C)C2=O)ccc1O` , what inhibition of growth at 10 µM is on record?
Reply | 23.5

Ask | For the compound `CC(C)=CC(=O)O[C@@H]1CC(C)(C)C[C@H]2C3=CC[C@@H]4[C@@]5(C)CC[C@H](O)C(C)(C)[C@@H]5CC[C@@]4(C)[C@]3(C)CC[C@@]12C(=O)O` , what inhibition of growth at 10 µM is on record?
Reply | 55.4

====

System: MDA-MB-468
Assay: Growth inhibition of human MDA-MB-468 cells by sulforhodamine B assay
Assay type: functional
Conditions: read-out: TGI
# reported TGI; entries follow
Enter your answer as a number in µM; do not include the unit.

Ask | For the compound CC(C)=CC(=O)O[C@@H]1CC(C)(C)C[C@H]2C3=CC[C@@H]4[C@@]5(C)CC[C@H](O)C(C)(C)[C@@H]5CC[C@@]4(C)[C@]3(C)CC[C@@]12C(=O)O [Reduced Lantadene B] , what TGI is on record?
Reply | 20.2

Ask | For the compound C/C=C(/C)C(=O)O[C@@H]1CC(C)(C)C[C@H]2C3=CC[C@@H]4[C@@]5(C)CC[C@H](O)C(C)(C)[C@@H]5CC[C@@]4(C)[C@]3(C)CC[C@@]12C(=O)O [Reduced Lantadene A] , what TGI is on record?
Reply | 3.64

Ask | For the compound `CC(C)=CC(=O)O[C@@H]1CC(C)(C)C[C@H]2C3=CC[C@@H]4[C@@]5(C)CCC(=O)C(C)(C)[C@@H]5CC[C@@]4(C)[C@]3(C)CC[C@@]12C(=O)O` , what TGI is on record?
Reply | 13.7

Ask | For the compound `CC1(C)C[C@@H](O)[C@]2(C(=O)O)CC[C@]3(C)C(=CC[C@@H]4[C@@]5(C)C/C(=C\C=C\c6ccccc6)C(=O)C(C)(C)[C@@H]5CC[C@]43C)[C@@H]2C1` , what TGI is on record?
Reply | 12.7
